Entries annotated with measured Activity
Target: Mineralocorticoid receptor (Rattus norvegicus)
Experiment: Aldosterone (5 ug/kg) antagonist and agonist activity for urinary Na/k at 0 ug/kg
Type: functional
Details: Urine
Keep it simple and answer with nothing but the number.

Below are worked cases with known answers.
>  <Compound>
CC12CCC(=O)C=C1CCC1C3CCC(C(=O)CO)C34COC(C4)[C@@H]12 (some centres undefined)

>  <Activity>
0.8

$$$$
>  <Compound>
CC12CCC(=O)C=C1CCC1C3CC[C@@]4(CCC(=O)O4)C34COC(C4)[C@@]12F (some centres undefined)

>  <Activity>
0.4

$$$$
>  <Compound>
CC12CCC(=O)C=C1CCC1C3CCC(C(=O)CO)C34COC(C4)[C@@]12F (some centres undefined)

>  <Activity>
1

$$$$

Attention now shifts to the item below.
Fill in Activity for record CC(=O)S[C@@H]1CC2=CC(=O)CCC2(C)C2C3CC4(CO3)C(CC[C@@]43CCC(=O)O3)C21 (some centres undefined) 1.1

###

Target: Mineralocorticoid receptor (Rattus norvegicus) (UniProt P22199)
Sequence (P22199 whole entry): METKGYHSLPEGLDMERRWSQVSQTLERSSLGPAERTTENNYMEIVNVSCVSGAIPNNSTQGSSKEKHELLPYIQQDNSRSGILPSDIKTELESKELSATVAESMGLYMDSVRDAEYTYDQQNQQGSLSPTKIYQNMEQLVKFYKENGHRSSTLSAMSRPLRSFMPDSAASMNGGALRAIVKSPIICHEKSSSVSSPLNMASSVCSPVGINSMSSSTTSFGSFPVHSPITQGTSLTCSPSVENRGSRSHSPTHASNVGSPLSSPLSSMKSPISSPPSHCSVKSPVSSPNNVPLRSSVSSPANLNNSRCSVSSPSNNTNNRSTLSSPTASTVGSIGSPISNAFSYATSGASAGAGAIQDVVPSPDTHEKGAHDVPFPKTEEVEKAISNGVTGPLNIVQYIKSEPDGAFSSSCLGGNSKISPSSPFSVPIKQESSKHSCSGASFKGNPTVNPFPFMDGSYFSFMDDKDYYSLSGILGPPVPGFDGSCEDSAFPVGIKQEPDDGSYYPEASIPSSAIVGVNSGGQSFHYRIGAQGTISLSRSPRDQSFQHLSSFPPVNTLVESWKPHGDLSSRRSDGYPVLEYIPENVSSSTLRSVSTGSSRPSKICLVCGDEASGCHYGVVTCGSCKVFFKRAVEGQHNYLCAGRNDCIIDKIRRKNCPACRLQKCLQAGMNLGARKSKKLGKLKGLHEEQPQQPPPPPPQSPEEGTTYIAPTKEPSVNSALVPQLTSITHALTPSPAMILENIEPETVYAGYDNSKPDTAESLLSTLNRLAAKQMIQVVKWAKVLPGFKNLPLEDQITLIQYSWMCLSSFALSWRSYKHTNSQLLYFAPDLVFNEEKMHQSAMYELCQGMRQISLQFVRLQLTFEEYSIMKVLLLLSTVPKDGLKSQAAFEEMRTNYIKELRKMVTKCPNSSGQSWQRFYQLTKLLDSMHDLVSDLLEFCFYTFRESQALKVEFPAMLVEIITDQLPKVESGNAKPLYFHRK
Test: Relative binding affinity against mineralocorticoid receptor of rat kidney at 25 degree Centigrade
// reported RBA per item
Please give a number only; it is taken to be in %.

>  <Molecule>
CC12CCC(=O)C=C1CCC1C3CC[C@@]4(CCC(=O)O4)C34COC(C4)[C@@]12F (stereo partly specified)

>  <Property>
RBA

>  <Observed>
23

$$$$

Check the records and state RBA for CC12CCC(=O)C=C1CCC1C3CC[C@@]4(CCC(=O)O4)C34COC(C4)[C@@H]12 (stereo partly specified) 1.1

Quick one: give measured RBA for CC12CCC(=O)C=C1CCC1C3CCC(C(=O)CO)C34COC(C4)[C@@]12F (stereo partly specified) 270

Hello, please tell me recorded RBA for this one: CC12CCC(=O)C=C1CCC1C3CCC(C(=O)CO)C34COC(C4)[C@@H]12 (stereo partly specified) 32

In one line, give reported RBA of the entry C[C@]12CCC(=O)C=C1CC[C@@H]1[C@@H]2[C@@H](O)C[C@]2(C=O)[C@@H](C(=O)CO)CC[C@@H]12 . 100

Let me know recorded RBA for CC(=O)S[C@@H]1CC2=CC(=O)CCC2(C)C2C3CC4(CO3)C(CC[C@@]43CCC(=O)O3)C21 (stereo partly specified) , thanks. 0.4

###

Molecular target: Mineralocorticoid receptor (Rattus norvegicus) (UniProt P22199)
Assay: Aldosterone (0 ug/kg) antagonist and agonist activity for urinary Na/k at 0 ug/kg
Type: functional
Settings: Urine
Property: Activity
Lab note: record just the number, no unit beside it.

>  <Compound>
CC12CCC(=O)C=C1CCC1C3CCC(C(=O)CO)C34COC(C4)[C@@]12F (stereo not given in full)

>  <Observed>
4.8

$$$$
>  <Compound>
CC(=O)S[C@@H]1CC2=CC(=O)CCC2(C)C2C3CC4(CO3)C(CC[C@@]43CCC(=O)O3)C21 (stereo not given in full)

>  <Observed>
7.7

$$$$
>  <Compound>
CC12CCC(=O)C=C1CCC1C3CC[C@@]4(CCC(=O)O4)C34COC(C4)[C@@H]12 (stereo not given in full)

>  <Observed>
3.8

$$$$
>  <Compound>
CC12CCC(=O)C=C1CCC1C3CC[C@@]4(CCC(=O)O4)C34COC(C4)[C@@]12F (stereo not given in full)

>  <Observed>
5.1

$$$$

Next compound, Activity to be filled in.
Give the reported value of Activity for this record: CC12CCC(=O)C=C1CCC1C3CCC(C(=O)CO)C34COC(C4)[C@@H]12 (stereo not given in full) 3.5

###

Target: Mineralocorticoid receptor (Rattus norvegicus) (UniProt P22199)
Experiment: Relative binding affinity against mineralocorticoid receptor of rat kidney at 0 degree Centigrade
Each record here notes measured RBA.
Just the number in %, nothing appended.

>  <Compound>
C[C@]12CCC(=O)C=C1CC[C@@H]1[C@@H]2[C@@H](O)C[C@]2(C=O)[C@@H](C(=O)CO)CC[C@@H]12

>  <RBA [%]>
100

$$$$
>  <Compound>
CC12CCC(=O)C=C1CCC1C3CC[C@@]4(CCC(=O)O4)C34COC(C4)[C@@H]12 (some centres undefined)

>  <RBA [%]>
1.8

$$$$
>  <Compound>
CC12CCC(=O)C=C1CCC1C3CCC(C(=O)CO)C34COC(C4)[C@@]12F (some centres undefined)

>  <RBA [%]>
320

$$$$

Field: next compound
Name the recorded RBA of the compound listed here: CC(=O)S[C@@H]1CC2=CC(=O)CCC2(C)C2C3CC4(CO3)C(CC[C@@]43CCC(=O)O3)C21 (some centres undefined) 0.1
